For each record, write down the corresponding concentration at 4 h.
assay: Plasma levels after oral dosing in the rat pain models; type: in vivo; details: Sprague-Dawley, rat, plasma, oral; 10 mg/kg; male SD rats; AITC model
The answer is to be given in ng/mL; state only the numeric part.

Looking for the measured concentration at 4 h of "Cn1c(=O)c2c(CC(=O)Nc3nc(-c4ccc(C(F)(F)F)c(F)c4)cs3)cccc2n(C)c1=O" , can you help?
6200

Looking for the measured concentration at 4 h of "Cn1c(=O)c2c(CC(=O)Nc3nc(-c4cccc(C(F)(F)F)c4)cs3)cccc2n(C)c1=O" , can you help?
9800

###

assay: Plasma levels after oral dosing in the rat pain models; format: in vivo; settings: Sprague-Dawley, rat, plasma, oral; 3 mg/kg, p.o.; male SD rats; AITC model; read-out: Plasma levels at 2 h
propertyName: concentration at 2 h (ng/mL)
The answer is to be given in ng/mL; state only the numeric part.

Looking for the measured concentration at 2 h of "Cn1c(=O)c2c(CC(=O)Nc3nc(-c4ccc(Cl)cc4)cs3)cccc2n(C)c1=O" , can you help?
2080

###

target: Human TRPA1 expressing CHO cells (Homo sapiens, UniProt O75762); construct: expressed in transfected cells; host or cells: CHO cells (under G-418 selection); experiment: 45Calcium uptake assay: inhibition of AITC induced cellular uptake of radioactive calcium; format: cell-based; details: 10.0 μM test compound; AITC 30 μM; human TRPA1 CHO cells; read-out: Percentage inhibition at 10.0 μM
Sequence (O75762 whole entry): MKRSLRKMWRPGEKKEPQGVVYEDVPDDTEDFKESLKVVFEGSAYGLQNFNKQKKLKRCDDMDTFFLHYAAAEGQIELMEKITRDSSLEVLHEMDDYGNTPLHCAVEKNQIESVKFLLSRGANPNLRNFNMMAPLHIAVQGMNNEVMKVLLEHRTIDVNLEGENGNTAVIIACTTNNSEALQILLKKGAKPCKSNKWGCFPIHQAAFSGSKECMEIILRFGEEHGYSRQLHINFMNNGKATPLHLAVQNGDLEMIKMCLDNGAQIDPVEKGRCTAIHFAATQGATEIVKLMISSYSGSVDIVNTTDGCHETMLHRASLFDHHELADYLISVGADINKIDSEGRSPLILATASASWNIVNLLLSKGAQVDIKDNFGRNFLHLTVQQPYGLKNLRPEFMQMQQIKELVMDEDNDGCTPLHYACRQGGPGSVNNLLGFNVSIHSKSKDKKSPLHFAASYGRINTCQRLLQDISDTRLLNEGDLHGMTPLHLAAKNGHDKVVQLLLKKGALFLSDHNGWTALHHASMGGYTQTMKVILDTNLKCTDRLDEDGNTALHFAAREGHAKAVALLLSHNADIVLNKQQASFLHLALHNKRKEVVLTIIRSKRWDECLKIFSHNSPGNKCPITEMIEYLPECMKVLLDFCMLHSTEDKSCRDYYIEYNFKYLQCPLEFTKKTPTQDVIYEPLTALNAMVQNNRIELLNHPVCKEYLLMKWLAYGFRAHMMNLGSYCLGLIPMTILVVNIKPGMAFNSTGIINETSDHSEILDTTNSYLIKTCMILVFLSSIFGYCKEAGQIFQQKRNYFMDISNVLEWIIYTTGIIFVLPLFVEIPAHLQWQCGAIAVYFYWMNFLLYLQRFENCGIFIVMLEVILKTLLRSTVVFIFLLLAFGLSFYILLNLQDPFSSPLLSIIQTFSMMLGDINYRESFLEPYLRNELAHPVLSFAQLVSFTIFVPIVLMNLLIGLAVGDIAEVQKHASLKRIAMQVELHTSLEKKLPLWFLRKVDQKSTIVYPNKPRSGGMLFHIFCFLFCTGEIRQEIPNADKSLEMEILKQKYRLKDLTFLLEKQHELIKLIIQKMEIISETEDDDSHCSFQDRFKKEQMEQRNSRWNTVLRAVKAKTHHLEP
For each record, write down the corresponding inhibition at 10 µM.
The answer is to be given in %; state only the numeric part.

Looking for the measured inhibition at 10 µM of "Cn1c(=O)c2c(CC(=O)Nc3nc(-c4ccc(I)cc4)cs3)cccc2n(C)c1=O" , can you help?
94.7

Looking for the measured inhibition at 10 µM of "Cn1c(=O)c2c(CC(=O)Nc3nc(-c4c(F)cccc4Cl)cs3)cccc2n(C)c1=O" , can you help?
88.6

Looking for the measured inhibition at 10 µM of "Cn1c(=O)c2c(CC(=O)Nc3nc(-c4cc(F)c(OCC(F)(F)F)c(F)c4)cs3)cccc2n(C)c1=O" , can you help?
99.9

Looking for the measured inhibition at 10 µM of "Cn1c(=O)c2c(CC(=O)Nc3nc(-c4cc(F)c(C(F)(F)F)c(F)c4)cs3)cccc2n(C)c1=O" , can you help?
100

Looking for the measured inhibition at 10 µM of "Cc1ccc(-c2csc(NC(=O)Cc3cccc4c3c(=O)n(C)c(=O)n4C)n2)cc1" , can you help?
96.8

Looking for the measured inhibition at 10 µM of "Cn1c(=O)c2c(CC(=O)Nc3nc(-c4ccc(C(C)(C)C)cc4)cs3)cccc2n(C)c1=O" , can you help?
99.8

Looking for the measured inhibition at 10 µM of "Cn1c(=O)c2c(CC(=O)Nc3nc4c(s3)CCc3cc(Cl)ccc3-4)cccc2n(C)c1=O" , can you help?
90.3

Looking for the measured inhibition at 10 µM of "COc1ccc(-c2csc(NC(=O)Cc3cccc4c3c(=O)n(C)c(=O)n4C)n2)cc1F" , can you help?
9.15

###

test: Plasma levels after oral dosing in the rat pain models; assay type: in vivo; settings: rat, plasma, oral; 10 mg/kg; FCA model, rats
propertyName: concentration at 0.5 h (ng/mL)
The answer is to be given in ng/mL; state only the numeric part.

Looking for the measured concentration at 0.5 h of "Cn1c(=O)c2c(CC(=O)Nc3nc(-c4ccc(Cl)cc4)cs3)cccc2n(C)c1=O" , can you help?
3500

###

target: Human TRPA1 expressing CHO cells (Homo sapiens); construct: expressed in transfected cells; host or cells: CHO cells (under G-418 selection); assay: 45Calcium uptake assay: inhibition of AITC induced cellular uptake of radioactive calcium; assay type: cell-based; details: 1.0 μM test compound; AITC 30 μM; human TRPA1 CHO cells; read-out: Percentage inhibition at 1.0 μM
propertyName: inhibition at 1 µM (%)
The answer is to be given in %; state only the numeric part.

Looking for the measured inhibition at 1 µM of "Cn1c(=O)c2c(CC(=O)Nc3ccn(-c4ccc(Cl)cc4F)n3)cccc2n(C)c1=O" , can you help?
76.7

Looking for the measured inhibition at 1 µM of "Cn1c(=O)n(CC2CC2)c(=O)c2c(CC(=O)Nc3nc(-c4ccc(C(C)(C)C)cc4)cs3)cccc21" , can you help?
17.2

Looking for the measured inhibition at 1 µM of "Cn1c(=O)c2c(CC(=O)Nc3nc(-c4ccccc4)cs3)cccc2n(C)c1=O" , can you help?
52.9

Looking for the measured inhibition at 1 µM of "Cn1c(=O)c2c(CC(=O)Nc3nc4c(s3)CCc3cc(Cl)ccc3-4)cccc2n(C)c1=O" , can you help?
59.8

Looking for the measured inhibition at 1 µM of "Cn1c(=O)c2c(CC(=O)Nc3nc(-c4ccc(Cl)c(Cl)c4)cs3)cccc2n(C)c1=O" , can you help?
98.4

Looking for the measured inhibition at 1 µM of "Cn1c(=O)c2c(CC(=O)Nc3nc(-c4ccc(Cl)cc4F)cs3)cccc2n(C)c1=O" , can you help?
97.5

Looking for the measured inhibition at 1 µM of "Cn1c(=O)c2c(CC(=O)Nc3cccc(-c4ccc(Cl)cc4)n3)cccc2n(C)c1=O" , can you help?
60.7

Looking for the measured inhibition at 1 µM of "Cn1c(=O)c2c(CC(=O)Nc3nc(-c4c(F)ccc(F)c4F)cs3)cccc2n(C)c1=O" , can you help?
59

###

For each record, write down the corresponding inhibition at 1 µM.
molecular target: Human TRPA1 expressing CHO cells (Homo sapiens, UniProt O75762); construct: expressed in transfected cells; host or cells: CHO cells (under G-418 selection); assay: 45Calcium uptake assay: inhibition of AITC induced cellular uptake of radioactive calcium; assay type: cell-based; conditions: 1.0 μM test compound; AITC 30 μM; human TRPA1 CHO cells; read-out: Percentage inhibition at 1.0 μM
The answer is to be given in %; state only the numeric part.

What inhibition at 1 µM appears in the records for this molecule with Human TRPA1 expressing CHO cells (Homo sapiens, UniProt O75762)? "Cn1c(=O)c2c(CC(=O)Nc3nc(-c4cc(F)c(Cl)cc4Cl)cs3)cccc2n(C)c1=O"
87.1

What inhibition at 1 µM appears in the records for this molecule with Human TRPA1 expressing CHO cells (Homo sapiens, UniProt O75762)? "Cn1c(=O)c2c(CC(=O)Nc3ccn(-c4ccc(Cl)cc4)n3)cccc2n(C)c1=O"
97.2

What inhibition at 1 µM appears in the records for this molecule with Human TRPA1 expressing CHO cells (Homo sapiens, UniProt O75762)? "Cn1c(=O)c2c(CC(=O)Nc3nc(-c4cc(F)c(C(F)(F)F)c(F)c4)cs3)cccc2n(C)c1=O"
100

What inhibition at 1 µM appears in the records for this molecule with Human TRPA1 expressing CHO cells (Homo sapiens, UniProt O75762)? "Cn1c(=O)c2c(CC(=O)Nc3nc(-c4ccc(OC(F)F)c(Cl)c4)cs3)cccc2n(C)c1=O"
97.8

What inhibition at 1 µM appears in the records for this molecule with Human TRPA1 expressing CHO cells (Homo sapiens, UniProt O75762)? "Cc1cc2nc(NC(=O)Cc3cccc4c3c(=O)n(C)c(=O)n4C)sc2cc1C"
49.1

What inhibition at 1 µM appears in the records for this molecule with Human TRPA1 expressing CHO cells (Homo sapiens, UniProt O75762)? "Cn1c(=O)c2c(CC(=O)Nc3nc(C4CCCCC4)cs3)cccc2n(C)c1=O"
62.2

What inhibition at 1 µM appears in the records for this molecule with Human TRPA1 expressing CHO cells (Homo sapiens, UniProt O75762)? "Cn1c(=O)c2c(CC(=O)Nc3nc(-c4ccc(F)cc4C(F)(F)F)cs3)cccc2n(C)c1=O"
51.6

What inhibition at 1 µM appears in the records for this molecule with Human TRPA1 expressing CHO cells (Homo sapiens, UniProt O75762)? "Cn1c(=O)c2c(CC(=O)Nc3nc(-c4ccc(Cl)cc4)cs3)cccc2n(C)c1=O"
99.7

###

biological target: Human TRPA1 expressing CHO cells (Homo sapiens, UniProt O75762); construct: expressed in transfected cells; host or cells: CHO cells (under G-418 selection); experiment: 45Calcium uptake assay: inhibition of AITC induced cellular uptake of radioactive calcium; assay type: cell-based; details: 1.0 μM test compound; AITC 30 μM; human TRPA1 CHO cells; read-out: Percentage inhibition at 1.0 μM
Classify as follows. Reported inhibition at 1 µM greater than or equal to 90%: class 1. Reported inhibition at 1 µM below: class 0.

Does the compound "Cn1c(=O)c2c(CC(=O)Nc3cccc(-c4ccc(C(F)(F)F)cc4)n3)cccc2n(C)c1=O" have recorded inhibition at 1 µM that is 90% or more?
class 0

Does the compound "Cc1sc(NC(=O)Cc2cccc3c2c(=O)n(C)c(=O)n3C)nc1-c1ccc(Cl)cc1" have recorded inhibition at 1 µM that is 90% or more?
class 0

Does the compound "Cn1c(=O)c2c(CC(=O)Nc3nc(-c4cccc(OC(F)(F)F)c4)cs3)cccc2n(C)c1=O" have recorded inhibition at 1 µM that is 90% or more?
class 1

Does the compound "Cn1c(=O)c2c(CC(=O)Nc3nc(-c4ccc(F)c(C(F)(F)F)c4)cs3)cccc2n(C)c1=O" have recorded inhibition at 1 µM that is 90% or more?
class 1

Does the compound "Cn1c(=O)c2c(CC(=O)Nc3nc(-c4ccc(C(F)(F)F)c(F)c4)cs3)cccc2n(C)c1=O" have recorded inhibition at 1 µM that is 90% or more?
class 1

Does the compound "O=C(Cc1cccc2[nH]c(=O)[nH]c(=O)c12)Nc1nc(-c2ccc(Cl)cc2)cs1" have recorded inhibition at 1 µM that is 90% or more?
class 0

Does the compound "Cn1c(=O)c2c(CC(=O)Nc3nnc(-c4ccc(Br)cc4)s3)cccc2n(C)c1=O" have recorded inhibition at 1 µM that is 90% or more?
class 0
